# Test system: 186277-243-T-J2-PDC complex spheroid viability
# method notes: Anticancer human tumor 186277-243-T-J2-PDC patient-derived colon adenocarcinoma cell line growth inhibition [POLQ]
# recorded conditions: second compound 0.1 µM; first compound 1 µM; stronger effect = lower value
Record form. Attribute: viability, T/C. Fill in for each entry.
The response must be a number in % with no trailing unit.

GET /values?readout=viability, T/C&item= O=C(c1cc(Cc2n[nH]c(=O)c3ccccc23)ccc1F)N1CCN(C(=O)C2CC2)CC1 + Cc1cccc(N(C)C(=O)C2C(O)CCN2c2nc(C)cc(C(F)(F)F)c2C#N)c1 92.7

GET /values?readout=viability, T/C&item= COc1ccc([C@@H](O)c2cc(-c3ncnc4cc(N5CCOCC5)ccc34)c(F)cc2Cl)nn1 + Cc1cccc(N(C)C(=O)C2C(O)CCN2c2nc(C)cc(C(F)(F)F)c2C#N)c1 97.9

GET /values?readout=viability, T/C&item= COc1cccc2c1C(=O)c1c(O)c3c(c(O)c1C2=O)CC(O)(C(=O)CO)CC3OC1CC(N)C(O)C(C)O1 (stereo not drawn) + COC1C(OC(N)=O)C(O)C(Oc2ccc3c(O)c(NC(=O)c4ccc(O)c(CC=C(C)C)c4)c(=O)oc3c2C)OC1(C)C 0.24

----------
Record form. Attribute: viability, T/C. Fill in for each entry.
# Test system: 186277-243-T-J2-PDC complex spheroid viability
# method notes: Anticancer human tumor 186277-243-T-J2-PDC cell line growth inhibition [POLQ];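 note: spheroids exposed to compounds for seven days; 100% = DMSO vehicle control viability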
# recorded conditions: second compound 1 µM; first compound 0.0316 µM; stronger effect = lower value
The response must be a number in % with no trailing unit.

GET /values?readout=viability, T/C&item= CCc1cc2c(N3CCc4c(cc(Cn5ccnc5)cc4-c4cn(C)nc4C(F)(F)F)C3=O)cc(C)nc2c(OC)n1 + Cc1cccc(N(C)C(=O)C2C(O)CCN2c2nc(C)cc(C(F)(F)F)c2C#N)c1 99.4

GET /values?readout=viability, T/C&item= C=CC(=O)N1CCN(c2nc(=O)n(-c3c(C)ccnc3C(C)C)c3nc(-c4c(O)cccc4F)c(F)cc23)C(C)C1 (stereo unspecified) + COC1C(OC(N)=O)C(O)C(Oc2ccc3c(O)c(NC(=O)c4ccc(O)c(CC=C(C)C)c4)c(=O)oc3c2C)OC1(C)C 97.3

GET /values?readout=viability, T/C&item= COc1cc(C2c3cc4c(cc3C(OC3OC5COC(C)OC5C(O)C3O)C3COC(=O)C23)OCO4)cc(OC)c1O (stereo unspecified) + Nc1ccc(C#CCN(C(=O)Cc2ncc(C(F)(F)F)cc2C(F)(F)F)c2ccc(F)cc2)nn1 92.2

GET /values?readout=viability, T/C&item= Nc1ccn(C2OC(CO)C(O)C2(F)F)c(=O)n1 (stereo unspecified) + Nc1ccc(C#CCN(C(=O)Cc2ncc(C(F)(F)F)cc2C(F)(F)F)c2ccc(F)cc2)nn1 12.8

GET /values?readout=viability, T/C&item= CC1COCCN1c1cc(C2(S(C)(=N)=O)CC2)nc(-c2ccnc3[nH]ccc23)n1 (stereo unspecified) + Nc1ccc(C#CCN(C(=O)Cc2ncc(C(F)(F)F)cc2C(F)(F)F)c2ccc(F)cc2)nn1 99.4

GET /values?readout=viability, T/C&item= CCc1cc2c(N3CCc4c(cc(Cn5ccnc5)cc4-c4cn(C)nc4C(F)(F)F)C3=O)ccnc2c(OC)n1 + Nc1ccc(C#CCN(C(=O)Cc2ncc(C(F)(F)F)cc2C(F)(F)F)c2ccc(F)cc2)nn1 103

GET /values?readout=viability, T/C&item= CC(C)n1c(=O)n(C)c2cnc3cc(F)c(-c4ccc(OCCCN5CCCCC5)nc4)cc3c21 + Nc1ccc(C#CCN(C(=O)Cc2ncc(C(F)(F)F)cc2C(F)(F)F)c2ccc(F)cc2)nn1 98.8

GET /values?readout=viability, T/C&item= Cn1ncnc1[C@H]1c2n[nH]c(=O)c3cc(F)cc(c23)N[C@@H]1c1ccc(F)cc1 + Nc1ccc(C#CCN(C(=O)Cc2ncc(C(F)(F)F)cc2C(F)(F)F)c2ccc(F)cc2)nn1 120

GET /values?readout=viability, T/C&item= CC(C)n1c(=O)n(C)c2cnc3cc(F)c(-c4ccc(OCCCN5CCCCC5)nc4)cc3c21 + Cc1cccc(N(C)C(=O)C2C(O)CCN2c2nc(C)cc(C(F)(F)F)c2C#N)c1 104

GET /values?readout=viability, T/C&item= O=C(c1cc(Cc2n[nH]c(=O)c3ccccc23)ccc1F)N1CCN(C(=O)C2CC2)CC1 + COC1C(OC(N)=O)C(O)C(Oc2ccc3c(O)c(NC(=O)c4ccc(O)c(CC=C(C)C)c4)c(=O)oc3c2C)OC1(C)C 90.7

GET /values?readout=viability, T/C&item= C=CC(=O)N1CCN(c2nc(=O)n(-c3c(C)ccnc3C(C)C)c3nc(-c4c(O)cccc4F)c(F)cc23)C(C)C1 (stereo unspecified) + Cc1cccc(N(C)C(=O)C2C(O)CCN2c2nc(C)cc(C(F)(F)F)c2C#N)c1 99.8

GET /values?readout=viability, T/C&item= O=C(Nc1ccc(O)c(NS(=O)(=O)c2ccc(F)cc2)c1)c1ccc(-c2ccccc2)cc1 + COC1C(OC(N)=O)C(O)C(Oc2ccc3c(O)c(NC(=O)c4ccc(O)c(CC=C(C)C)c4)c(=O)oc3c2C)OC1(C)C 90.8

GET /values?readout=viability, T/C&item= COc1cc2cc(C(=O)CCC(=O)O)sc2cc1OC + Cc1cccc(N(C)C(=O)C2C(O)CCN2c2nc(C)cc(C(F)(F)F)c2C#N)c1 93.2

GET /values?readout=viability, T/C&item= CCCS(=O)(=O)Nc1ccc(F)c(C(=O)c2c[nH]c3ncc(-c4ccc(Cl)cc4)cc23)c1F + Nc1ccc(C#CCN(C(=O)Cc2ncc(C(F)(F)F)cc2C(F)(F)F)c2ccc(F)cc2)nn1 100

GET /values?readout=viability, T/C&item= CC1COCCN1c1cc(-c2ccnn2C)c2ccnc(-c3ccn[nH]3)c2n1 (stereo unspecified) + COC1C(OC(N)=O)C(O)C(Oc2ccc3c(O)c(NC(=O)c4ccc(O)c(CC=C(C)C)c4)c(=O)oc3c2C)OC1(C)C 71

GET /values?readout=viability, T/C&item= CNCc1ccc(-c2[nH]c3cc(F)cc4c3c2CCNC4=O)cc1 + COC1C(OC(N)=O)C(O)C(Oc2ccc3c(O)c(NC(=O)c4ccc(O)c(CC=C(C)C)c4)c(=O)oc3c2C)OC1(C)C 87.1

GET /values?readout=viability, T/C&item= COc1cc(C2c3cc4c(cc3C(OC3OC5COC(C)OC5C(O)C3O)C3COC(=O)C23)OCO4)cc(OC)c1O (stereo unspecified) + Cc1cccc(N(C)C(=O)C2C(O)CCN2c2nc(C)cc(C(F)(F)F)c2C#N)c1 93.8

GET /values?readout=viability, T/C&item= O=C(c1cc(Cc2n[nH]c(=O)c3ccccc23)ccc1F)N1CCN(C(=O)C2CC2)CC1 + Nc1ccc(C#CCN(C(=O)Cc2ncc(C(F)(F)F)cc2C(F)(F)F)c2ccc(F)cc2)nn1 96.1

GET /values?readout=viability, T/C&item= O=c1[nH]cc(F)c(=O)[nH]1 + COC1C(OC(N)=O)C(O)C(Oc2ccc3c(O)c(NC(=O)c4ccc(O)c(CC=C(C)C)c4)c(=O)oc3c2C)OC1(C)C 109

GET /values?readout=viability, T/C&item= CC1COCCN1c1cc(C2(S(C)(=N)=O)CC2)nc(-c2ccnc3[nH]ccc23)n1 (stereo unspecified) + Cc1cccc(N(C)C(=O)C2C(O)CCN2c2nc(C)cc(C(F)(F)F)c2C#N)c1 97

GET /values?readout=viability, T/C&item= COc1cc2cc(C(=O)CCC(=O)O)sc2cc1OC + Nc1ccc(C#CCN(C(=O)Cc2ncc(C(F)(F)F)cc2C(F)(F)F)c2ccc(F)cc2)nn1 96.1
